Item-by-item account of PBM E-score
- tgt: Upc2 (UniProt Q12151)
- Sequence: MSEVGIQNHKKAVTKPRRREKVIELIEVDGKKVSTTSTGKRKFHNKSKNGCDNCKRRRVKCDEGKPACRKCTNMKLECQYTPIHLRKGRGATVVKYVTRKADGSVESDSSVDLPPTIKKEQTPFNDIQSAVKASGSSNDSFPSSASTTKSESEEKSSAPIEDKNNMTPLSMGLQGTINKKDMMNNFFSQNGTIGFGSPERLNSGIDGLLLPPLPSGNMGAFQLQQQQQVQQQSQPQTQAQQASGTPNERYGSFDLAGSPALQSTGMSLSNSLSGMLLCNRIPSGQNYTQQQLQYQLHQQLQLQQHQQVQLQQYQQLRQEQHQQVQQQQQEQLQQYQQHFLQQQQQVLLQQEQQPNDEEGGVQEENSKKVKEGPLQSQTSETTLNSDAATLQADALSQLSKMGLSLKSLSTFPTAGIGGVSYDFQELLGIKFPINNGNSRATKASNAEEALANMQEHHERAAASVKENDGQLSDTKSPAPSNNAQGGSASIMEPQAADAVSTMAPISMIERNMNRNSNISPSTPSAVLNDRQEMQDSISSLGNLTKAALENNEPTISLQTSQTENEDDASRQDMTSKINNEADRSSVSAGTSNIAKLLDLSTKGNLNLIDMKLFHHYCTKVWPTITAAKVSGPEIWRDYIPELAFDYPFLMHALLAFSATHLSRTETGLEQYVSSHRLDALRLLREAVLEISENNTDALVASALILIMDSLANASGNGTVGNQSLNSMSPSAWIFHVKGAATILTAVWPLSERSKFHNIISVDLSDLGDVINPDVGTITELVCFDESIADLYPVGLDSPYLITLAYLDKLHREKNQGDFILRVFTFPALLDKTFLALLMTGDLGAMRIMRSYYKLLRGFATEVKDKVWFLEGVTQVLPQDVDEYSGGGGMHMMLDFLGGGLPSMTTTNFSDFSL
- test_description: PBM E-score (8-mer binding enrichment) (E-score (-0.5 to 0.5)); higher = stronger / more preferred TF binding
- measurement_context: protein concentration: 200 nM; construct: GST-full length
The full ranking holds about 33,000 sequences; the median of “E-score (-0.5 to 0.5)” is about -0.043, and the highest 2% start at about 0.37. This excerpt belongs to a sample that is enriched for the highest values.
observed_property: PBM E-score

CGACCCTC: 0.0606
GCAAACGA: 0.462
ACGAGGTA: 0.382
AAACGGCC: 0.359
ATACGTAA: 0.334
AGTACAAG: -0.052
ATGTCCTA: 0.0227
GCAAACAA: 0.00753
GGCGTAAA: 0.279
GTTGTCAA: -0.00594
AATCTGAA: -0.00542
ACGAGTAT: 0.376
ACGAGTAA: 0.348
ATACGAAA: 0.47
ATACGTAT: 0.372
CGGACGAC: -0.21
ATACGTAC: 0.339
AACGCTAT: 0.0885
GTAAACGA: 0.491
CTAAACTC: 0.0155
ACAGTAGA: -0.0149
ACGAGTCA: 0.249
AGGACAGA: -0.347
AAGCTGCG: -0.0191
TTCGTAAA: 0.459
ATCGTAAT: 0.287
AATCCATG: -0.252
TCCGTAAA: 0.357
CTAAACGC: 0.416
GCGAGTAC: 0.204
AAAATACG: 0.346
CGTACGAC: 0.449
CCCATCGG: 0.0976
CGTACATC: 0.352
GACGTAAA: 0.228
CGACACAG: 0.122
ATTCGTAA: 0.399
ACGAGTGC: 0.377
AAACTTTA: -0.0184
GTTCGTAA: 0.424
TGCGTAAA: 0.294
GGGTGCAC: -0.128
AACGACGA: 0.454
AAACGGCT: 0.296
ACTAGAGC: -0.0879
ACCGTCGT: 0.394
CGACTCTC: 0.179
AGTACGCA: -0.0414
AGTACGAA: 0.384
AGTACATA: -0.0422
ATTCGTGA: 0.0183
ACAAACGA: 0.466
AAACGGCA: 0.37
CCGAGTGC: -0.0549
TCACGAAA: -0.0654
ACTTTATA: 0.127
AGTACTAC: 0.119
CGTACATA: 0.415
AGTACAAC: -0.0045
CCGTTTTA: 0.118
AGGAACCC: 0.0161
GAACGGCA: 0.27
AACGTCGA: 0.202
CTACGAAA: 0.272
CTACAATC: 0.0566
ATTGGATG: 0.03
GCGAGGTA: 0.244
GTTCGTGA: 0.0858
CCTCTCAG: -0.352
CGCAAATA: 0.0612
AAAAGCTG: 0.0411
CAACGGCA: -0.0468
ATAGATCC: -0.0535
GTCGTAAA: 0.477
GAAAGCCA: -0.231
ATGGTCTG: -0.129
CCAAGAAG: -0.227
ACGAGTGG: 0.295
GGCATAAC: -0.0916
ACGAGTAC: 0.419
CTACGAAC: 0.333
CGTACAAC: 0.439
GCAAACGC: 0.25
CGTACAAG: 0.442
AAAAACTG: -0.0494
GTACGAAC: 0.467
AGCGACGA: 0.185
ACGAGGTG: 0.367
ATCGTAAC: 0.372
CCGAGTAC: 0.196
AGTACGCG: 0.189

---

Item-by-item account of PBM E-score
- tgt: Upc2 (UniProt Q12151)
- Sequence: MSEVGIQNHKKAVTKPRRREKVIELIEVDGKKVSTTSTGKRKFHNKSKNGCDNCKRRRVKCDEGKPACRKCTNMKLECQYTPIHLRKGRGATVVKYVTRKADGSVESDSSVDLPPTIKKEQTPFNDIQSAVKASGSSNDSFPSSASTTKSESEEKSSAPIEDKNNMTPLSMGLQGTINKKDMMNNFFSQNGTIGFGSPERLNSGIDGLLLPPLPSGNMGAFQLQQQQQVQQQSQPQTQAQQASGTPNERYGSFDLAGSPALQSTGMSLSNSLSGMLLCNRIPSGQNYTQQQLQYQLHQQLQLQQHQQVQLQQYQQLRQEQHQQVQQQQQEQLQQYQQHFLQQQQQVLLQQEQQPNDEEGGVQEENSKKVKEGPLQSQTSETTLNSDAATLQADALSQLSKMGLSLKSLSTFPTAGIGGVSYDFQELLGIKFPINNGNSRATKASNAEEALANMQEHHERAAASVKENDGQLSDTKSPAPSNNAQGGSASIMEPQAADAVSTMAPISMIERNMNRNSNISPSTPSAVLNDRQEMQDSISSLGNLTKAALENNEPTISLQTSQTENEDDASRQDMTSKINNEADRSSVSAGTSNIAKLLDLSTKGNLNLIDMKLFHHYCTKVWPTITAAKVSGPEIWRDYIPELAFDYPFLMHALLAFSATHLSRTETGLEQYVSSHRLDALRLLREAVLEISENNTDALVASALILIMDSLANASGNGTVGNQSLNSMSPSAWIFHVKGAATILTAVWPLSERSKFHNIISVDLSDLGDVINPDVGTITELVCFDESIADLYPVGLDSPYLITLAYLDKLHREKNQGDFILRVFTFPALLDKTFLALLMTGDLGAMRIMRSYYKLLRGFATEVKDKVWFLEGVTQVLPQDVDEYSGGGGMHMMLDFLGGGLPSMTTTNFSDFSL
- test_description: PBM E-score (8-mer binding enrichment) (E-score (-0.5 to 0.5)); higher = stronger / more preferred TF binding
- measurement_context: protein concentration: 200 nM; construct: GST-full length
The full ranking holds about 33,000 sequences; the median of “E-score (-0.5 to 0.5)” is about -0.043, and the highest 2% start at about 0.37. This excerpt belongs to a sample that is enriched for the highest values.
observed_property: PBM E-score

ATGAGATG: -0.243
AGCTCAGA: -0.0803
AGTACACC: 0.0771
AGTCGTAT: 0.467
GTCTCGGA: 0.162
ATACGATC: 0.465
ATAGAGGC: -0.0461
CCGTCGTC: 0.0861
AGACGATG: 0.0313
AGTACACA: 0.143
CGCGTAAG: 0.205
ACACGATC: 0.123
ATTTTCCG: 0.139
CTGCTCTA: -0.0369
CGGACTAC: -0.113
CGTACACA: 0.418
TGTACACA: 0.0892
CCCGTAAC: 0.248
ACGACGCA: 0.389
ACGACGCG: 0.389
CACGAAAA: 0.134
CTCTCGAA: -0.0265
ATACGGAT: 0.357
ACGAGAGC: 0.375
CTCTCCTA: 0.0887
CTCTCGTA: 0.453
ACGAGACC: 0.347
GATGGGAC: -0.0558
ACGTTTTG: -0.0436
ACTGTACG: 0.433
TACGAATA: 0.415
AGTCGTCG: 0.0489
ATCTCGTG: 0.124
ACACGGAG: -0.0181
CTACGGAG: -0.138
CTCGTAAC: 0.425
ACGACTCG: 0.381
ACGACGCT: 0.361
CCGTTTAG: 0.468
ATCTCGTC: 0.123
CGACTCTA: 0.0472
ACGTCGTG: 0.0636
GGCGTAAC: 0.0403
TGAAATCA: -0.103
CGTCGGGC: -0.231
GCGTCGTA: 0.468
GTACGCAA: 0.247
GACGAATC: 0.138
CCCATACG: 0.407
GGAGTCCC: -0.172
TCGCATAA: 0.383
CGCATTCA: -0.00072
CAGTTTAG: -0.0566
GGTACACA: -0.235
CCGAGATC: 0.018
ACGTTTAG: 0.397
AACCCAAC: 0.00517
CCCATACC: 0.0537
CACGTAAC: 0.039
GTCTCGTA: 0.456
GATATGGA: 0.047
GTCTCGAA: -0.0265
CACGAATA: 0.175
ATACGGAC: 0.394
GTCGTAAC: 0.408
GACGTAAC: 0.0258
ACGAGATC: 0.408
GAAGAAGC: -0.195
CAGGACTC: -0.0969
CAACCAGC: -0.203
CTTCATCC: -0.177
ACTGTACT: 0.0214
CTACGATC: 0.288
ACGGTGGG: 0.134
CTCGGCGC: 0.069
CCGTTTCG: 0.255
ACGCATAA: 0.172
ATACGCAA: 0.37
ACGACTCT: 0.319
CGTACACC: 0.382
CCGTCGTA: 0.457
ATCTCCTG: -0.0597
AGGGGTCC: -0.168
GCTTCGCA: 0.186
AGCGAATG: 0.177
ACGTCGTC: 0.206
ACCATACG: 0.399
CAAGTAAA: 0.0181
GGTACACC: 0.0641
ACGTTTAT: 0.313
ATGTTTAA: 0.067

Data provenance is the supplement of paper PMC3334620.
